From: PubChem BioAssay

- target_or_test_system: Homeobox protein Hox-A13 (Mus musculus) (UniProt Q62424)
- Sequence (Q62424 whole entry, looked up): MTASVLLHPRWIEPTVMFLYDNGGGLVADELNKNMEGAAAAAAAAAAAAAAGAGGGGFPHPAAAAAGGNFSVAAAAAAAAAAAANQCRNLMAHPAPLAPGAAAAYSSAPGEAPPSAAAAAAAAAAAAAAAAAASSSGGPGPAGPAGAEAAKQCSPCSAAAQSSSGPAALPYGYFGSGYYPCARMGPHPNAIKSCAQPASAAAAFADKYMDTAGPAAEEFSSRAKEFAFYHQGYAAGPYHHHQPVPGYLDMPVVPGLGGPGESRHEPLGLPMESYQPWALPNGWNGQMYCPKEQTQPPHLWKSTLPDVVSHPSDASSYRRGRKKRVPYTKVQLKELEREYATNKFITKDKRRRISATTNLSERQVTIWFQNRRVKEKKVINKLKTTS
- test_method_notes: inhibitors of HoxA13-DNA binding, primary screen, biochemical, fluorescence polarization, labeled oligonucleotide (AID 1185)
- experimental_conditions: 15 min, higher = more signal, called active from +8 up or from −8 down
readout: z-score
Give bare numbers.

Worked set:
- compound: "COCCOC(=O)N1C(=O)[C@@]2(c3cc(C#CC4(O)CCCCCC4)ccc31)[C@H](C(=O)N1CCCCCCC1)[C@H]1C(=O)O[C@H](c3ccccc3)[C@H](c3ccccc3)N1[C@@H]2c1ccc(O)cc1"
  readout: "z-score"
  data_value: 3.51
- compound: "Cc1ccc(S(=O)(=O)N2[C@@H](c3ccccc3)C(C(=O)O)=CC[C@H]2c2ccccc2)cc1"
  readout: "z-score"
  data_value: -3.76
- compound: "C=CC[C@@]1(C(=O)NCC(O)CO)N=C(c2ccc(OCCCO)cc2)O[C@@H]1c1ccccc1CN=[N+]=[N-] (stereo not given in full)"
  readout: "z-score"
  data_value: -2.67

For each of the compounds below, state z-score.
1. C#CCNC(/C=C/c1ccccc1)CO (stereo not given)
2. C#CCCCON=C1C[C@@H](O)[C@@H](O)[C@@H]2[C@@H]3C(=O)N(Cc4ccc5c(c4)OCO5)C(=O)[C@@H]3CC[C@H]12

Result:
[-1.21, -0.469]

For each of the compounds below, state z-score.
1. CCOC(=O)C[C@H]1[C@H](OC(=O)c2cc3ccccc3oc2=O)[C@@H](NC(=O)C2CCCCC2)c2cc(OCCCO)ccc2N1C(=O)c1ccc2ccccc2n1
2. O=C1C[C@@](C(=O)NC2CC2)(c2ccc([N+](=O)[O-])cc2)[C@@H](c2ccc(CO)cc2I)N1CC12CC3CC(CC(C3)C1)C2
3. O=C1O[C@H](c2ccccc2)[C@H](c2ccccc2)N2[C@H]1[C@@H](C(=O)NC[C@H](O)c1ccccc1)[C@]1(C(=O)Nc3ccc(C#CC4=CCCCC4)cc31)[C@H]2c1ccc(OCCO)cc1
4. COC(=O)[C@@]1(Cc2ccccc2)[C@H]2c3cc(C(=O)N4CCCC4)n(CCN4CNCC4=O)c3C[C@H]2CN1C(=O)c1ccccc1
5. COC(=O)c1ccc(C#CC(NP(=O)(c2ccccc2)c2ccccc2)c2ccccc2)cc1 (stereo not given)
6. O=C(N1CCCCC1)[C@@]1(CCS(=O)(=O)c2ccccc2)N=C(c2ccc(OCCCO)cc2)O[C@H]1c1ccccc1
7. CC(C)=C1C(=O)C(c2ccccc2)=C2CN3C(=O)N(CCc4ccccc4)C(=O)[C@]3(Cc3ccccc3)[C@H]21

Result:
[-4.56, -3.64, 3.43, -5.22, -3.02, -3.65, -0.972]

For each of the compounds below, state z-score.
1. CCC#CCN(Cc1ccccc1Br)[C@H](/C=C/c1ccccc1)[C@@H](O)Cc1ccccc1
2. C=CC[C@]1(C(=O)NCC(O)CO)N=C(c2ccc(OCCCO)cc2)O[C@H]1c1ccccc1 (stereo not given in full)

Result:
0.462
-5.04

Q: z-score lookup needed for O=C/C=C/c1ccc(/C=C/c2ccccc2)cc1 , thanks.
Result: 0.0626
